Property: growth inhibition; scope: individual molecules
assay: NCI Yeast Anticancer Drug Screen. Data for the rad14 strain (AID 159);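 note: 0% = growth of vehicle-treated control cultures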; conditions: S. cerevisiae rad14 strain growth inhibition; at 11.0 µM; stronger effect = higher value
This is part of a sample that, as a whole, favours compounds with a hit. Of some 79,000 tested, about 15% had one in any assay.

# molecule, growth inhibition [%]
measured = [
    ("CCCCCCCCCCCCCC(=O)OC(C)CCC1CCCO1 (stereo not drawn)", 0),
    ("O=C1C=CC(=O)N1c1ccc(I)cc1", 97),
    ("O=Nc1ccc(Nc2ccccc2)cc1", -44),
    ("Nc1ccc(CCl)cc1Cc1c(O)ccc2ccccc12", 8),
    ("CC(=O)C1=C(O)C2(C)c3c(O)c(C)c(O)c(C(C)=O)c3OC2(Sc2ccccc2)CC1=O (stereo not drawn)", 17),
    ("C(=N/NC1=NCCN1)/c1c2ccccc2c(/C=N\\NC2=NCCN2)c2ccccc12", -3),
    ("CCCCCCCCN1C(=O)c2ccccc2C1=O", 6),
    ("CN(C)CCNc1cccc2sc3ccc(O)cc3c(=O)c12", 5),
    ("CN=C(N)N/N=C(\\C)c1ccc2oc3ccc(/C(C)=N/NC(N)=NC)cc3c2c1", 43),
    ("COc1ccc(S(=O)(=O)N/N=C\\c2cc([N+](=O)[O-])cc(I)c2O)c(OC)c1OC", 13),
    ("S=c1[nH]c2c(Cl)c(Cl)c(Cl)c(Cl)c2[nH]1", 50),
    ("CC(=O)CC(=O)/C=C/c1cccs1", 6),
    ("O=C1CSC(=S)N1Cc1ccc(Cl)cc1Cl", 99),
    ("Cc1ccc(N=Nc2ccc(O)c(C)c2)cc1", 68),
    ("CCCCOC(=O)CSSCC(=O)OCCCC", -3),
    ("COc1ccc(N=N/C(=N\\NC(=O)c2cc(Br)ccc2O)c2ccc(N(CCC#N)CCC#N)cc2OC)cc1", 21),
    ("Nc1nc(N)c2cc(Sc3ccc4ccccc4c3)ccc2n1", 69),
    ("CC1C(C#N)(C#N)C(C#N)=C(N)C1(Cl)[N+](=O)[O-] (stereo not drawn)", 15),
    ("CN(Cc1cnc2nc(N)nc(N)c2n1)c1ccc(C(=O)NC(CCC(=O)O)C(=O)O)c2ccccc12 (stereo not drawn)", 49),
    ("CC[C@@]1(OC(=O)CN(C)C)C(=O)OCc2c1cc1n(c2=O)Cc2cc3c(N)cccc3nc2-1", 4),
    ("COC(=O)c1cccc(C)c1C(=O)c1c(C)cc(C)cc1C", 5),
    ("N#C/C(=C1C=C/C(=N/O)c2ccccc2/1)c1ccccc1", -3),
    ("COc1cc(/C=C/c2sc3ccccc3[n+]2C)ccc1N(C)C", -2),
]

====

assay: NCI Yeast Anticancer Drug Screen. Data for the rad50 strain (AID 155);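 note: 0% = growth of vehicle-only cultures of the same strain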; details: S. cerevisiae rad50 strain growth inhibition; at 5.0 µM (retest, dose inferred, filed as 0.5); stronger effect = higher value
This is part of a sample that, as a whole, favours compounds with a hit. Of some 79,000 tested, about 15% had one in any assay.
Label false if growth inhibition falls below 30%; label true in every other case.

# compound, label
data = [
    ("CCCCCCCCCCCCCCCCCCNC(=S)/N=C\\C1=C(O)c2ccccc2C1=O", "false"),
    ("Cc1ccc(S(=O)(=O)Nc2ccc3c(c2)C(O)c2ccccc2-3)cc1 (centres undefined)", "false"),
    ("O=C1C=CC(=O)N1c1ccc(I)cc1", "false"),
    ("COc1cccc(C(c2cc3c(cc2O)OCO3)N2CCOCC2)c1OC (centres undefined)", "false"),
    ("Cc1cccc(/C=N\\NC(=S)N2CCCCC2)n1", "true"),
    ("O=C1NC(c2c(Cl)cccc2Cl)Nc2ccccc21 (centres undefined)", "true"),
    ("O=[N+]([O-])/C(C(Cl)=C(Cl)Cl)=C1/OCCS1", "false"),
    ("CCOC(=O)Nc1ccc2c(c1)Cc1ccccc1-2", "false"),
    ("CN[C@@H]1C[C@H]2O[C@@](C)([C@@H]1OC)n1c3ccccc3c3c4c(c5c6ccccc6n2c5c31)C(=O)N[C@@H]4O", "false"),
    ("Cc1cc(Cl)ccc1NC(=O)/C(Cl)=C1/Sc2ccccc2NC1=O", "true"),
    ("CCOc1ccc(C(=O)CCC(=O)O)c(C)c1", "false"),
    ("O=Nc1ccc(Nc2ccccc2)cc1", "false"),
    ("CCCCCC(=O)c1ccc(O)cc1O", "true"),
    ("CC1CCC2(C(=O)O)CCC3(C)C(=CCC4C5(C)CC(O)C(O)C(C)(CO)C5C(O)CC43C)C2C1C (centres undefined)", "true"),
    ("COc1cc(/C=C/c2sc3ccccc3[n+]2C)ccc1N(C)C", "false"),
    ("O=C(CNS(=O)(=O)Cc1ccccc1)NNc1ccccc1", "false"),
    ("OCCN(CCO)c1ccc2c(c1)Cc1ccccc1-2", "false"),
    ("O=C1C=CC(=O)N1c1ccc(N2C(=O)C=CC2=O)cc1", "true"),
    ("OB(O)c1ccccc1C#Cc1ccccc1B(O)O", "false"),
    ("COc1ccc2oc(-c3ccc(Cl)cc3)c(N3CCN(C)CC3)c2c1", "true"),
    ("CCCCCCSc1nc(COC(=O)NC)c(COC(=O)NC)n1C", "false"),
    ("COc1ccc(N=N/C(=N\\NC(=O)c2cc(Br)ccc2O)c2ccc(N(CCC#N)CCC#N)cc2OC)cc1", "false"),
    ("CC1=CCC(C(C)(C)c2ccc(O)cc2)CC1 (centres undefined)", "true"),
    ("CCOC(=O)CNC(=O)c1[nH]cnc1/N=N/N(C)C", "false"),
    ("N#C/C(=C1C=C/C(=N/O)c2ccccc2/1)c1ccccc1", "true"),
    ("CCN(CC)CC(O)C1CCC(c2ccccc2)CC1 (centres undefined)", "false"),
    ("Cc1cc(Cl)nc2nc(Cl)c(N)cc12", "false"),
    ("C=C1N(C)c2ccc(Cl)cc2C1(C)C", "true"),
    ("CCn1ncc(N=O)c1N", "false"),
    ("Clc1c(Cl)c(Cl)c2n[nH]nc2c1Cl", "true"),
    ("O=Cc1coc2ccccc2c1=O", "false"),
    ("Nc1cc(F)cc2c1-c1ccc(F)cc1C2", "false"),
    ("CCOP1(=O)C=C(Sc2ccc([N+](=O)[O-])cc2[N+](=O)[O-])C(C)(C)O1 (centres undefined)", "false"),
    ("[N-]=[N+]=NC(c1ccccc1)(c1ccccc1)c1ccccc1", "true"),
    ("Cc1ccc(Nc2c3c(c(C#N)c4nc5ccccc5n24)CCCC3)cc1", "true"),
    ("Oc1ccccc1N=Cc1ccc(Cl)cc1", "false"),
    ("NNC(=S)Nc1cccc(Cl)c1", "true"),
    ("Nc1ccc2c(=S)c3ccccc3[nH]c2c1", "false"),
    ("CCCCCCCCCCCc1nc(N)n[nH]1", "false"),
    ("CC[C@@]1(OC(=O)CN(C)C)C(=O)OCc2c1cc1n(c2=O)Cc2cc3c(N)cccc3nc2-1", "true"),
    ("NC(N)=N/N=C/c1cc(Cl)cc(Cl)c1O", "true"),
    ("Clc1nc(C(Cl)Cl)nc2sc3c(c12)CCCC3", "false"),
    ("On1cnc(=S)c2[nH]cnc21", "false"),
    ("CN(C)Cc1cccc(CN(C)C)[c]1[Sn]([Br])([c]1ccccc1)[c]1ccccc1", "true"),
    ("COc1ccc2c(c1)[nH]c1c(/C=C/c3ccccc3)nccc12", "true"),
    ("Cc1cc(OCc2ccccc2)ccc1[N+](=O)[O-]", "true"),
    ("Cc1cc(O)c2c(c1O)C(=O)C13C(=C2O)C(=O)C2C(O)C1C1C(O)C3C(=O)C3=C(O)c4c(O)cc(C)c(O)c4C(=O)C321 (centres undefined)", "false"),
    ("CCN(CC)CC(O)c1cc(-c2ccc(Cl)cc2)nc2c(-c3ccccc3)cccc12 (centres undefined)", "true"),
]
